testTarget: Cellular tumor antigen p53 (Homo sapiens)
methodSummary: TOX21_p53_BLA_p3_ratio: Tox21 HCT-116 p53 Agonism Beta-lactamase Assay, Ratio, Phase 3 (AID 2283596)
Results filed as inconclusive are left out. The source made the active and inactive calls. The calls were made as follows: active = hit-call score of the fitted dose curve at least 0.9, where 1 is the maximum; inconclusive = response in the unintended direction; inactive = score below 0.9.
Select the correct class. Options are active, inactive and nothing else.

Query: What outcome does the record of this test show for `C[C@@H](O)[C@H]1C(=O)N2C(C(=O)O)=C(S[C@@H]3CN[C@H](C(=O)N(C)C)C3)[C@H](C)[C@H]12` ?
Reply: inactive

Query: What outcome does the record of this test show for O=C(O)C(S)C(S)C(=O)O (stereo unspecified) ?
Reply: inactive

Query: What outcome does the record of this test show for `O=C(Cn1ccnc1[N+](=O)[O-])NCc1ccccc1` ?
Reply: inactive

Query: What outcome does the record of this test show for `Cc1ncc(C[n+]2csc(CCOP(=O)(O)O)c2C)c(N)n1` ?
Reply: inactive

Query: What outcome does the record of this test show for `COc1ccccc1N1CCN(CCCNc2cc(=O)n(C)c(=O)n2C)CC1` ?
Reply: inactive
